tested.target: Serine/threonine-protein kinase PAK 1 (Homo sapiens) (UniProt Q13153);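 further: reported values are mean percent inhibition of PAK1 activity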
Sequence (Q13153 whole entry): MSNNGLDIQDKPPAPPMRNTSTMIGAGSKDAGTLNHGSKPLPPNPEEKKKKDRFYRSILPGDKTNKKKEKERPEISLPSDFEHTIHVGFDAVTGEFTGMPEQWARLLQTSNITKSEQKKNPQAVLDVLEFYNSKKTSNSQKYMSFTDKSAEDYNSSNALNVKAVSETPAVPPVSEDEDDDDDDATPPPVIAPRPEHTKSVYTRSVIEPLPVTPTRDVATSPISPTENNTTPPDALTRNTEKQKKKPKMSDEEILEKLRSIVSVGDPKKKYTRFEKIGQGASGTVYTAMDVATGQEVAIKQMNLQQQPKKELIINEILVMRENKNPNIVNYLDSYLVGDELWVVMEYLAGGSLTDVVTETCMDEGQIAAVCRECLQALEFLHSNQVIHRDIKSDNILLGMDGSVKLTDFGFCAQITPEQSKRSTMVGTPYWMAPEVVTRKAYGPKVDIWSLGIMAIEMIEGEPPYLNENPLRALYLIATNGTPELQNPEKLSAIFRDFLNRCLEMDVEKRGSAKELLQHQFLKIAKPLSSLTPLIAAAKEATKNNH
protocol.conditions: at 1 µM
measured.attribute: inhibition (%)

>  <compound.smiles>
Cc1cc(-c2ccco2)cc(C)c1/C=C/c1cncc(-c2nn[nH]n2)c1

>  <unit.abbreviation>
%

>  <reading>
2.13

$$$$
>  <compound.smiles>
NS(=O)(=O)c1ccc(N/C=C2\C(=O)Nc3ccc4ncsc4c32)cc1

>  <unit.abbreviation>
%

>  <reading>
7.33

$$$$
>  <compound.smiles>
Fc1ccc(-c2ncn(C3CCNCC3)c2-c2ccnc(Oc3ccccc3)n2)cc1

>  <unit.abbreviation>
%

>  <reading>
1.88

$$$$
>  <compound.smiles>
NC(=O)c1sc(-n2cnc3cc(C(F)(F)F)ccc32)cc1OCc1ccccc1Br

>  <unit.abbreviation>
%

>  <reading>
2.03

$$$$
>  <compound.smiles>
COc1cc(C=NNc2ncnc3c2cnn3Cc2ccccc2)ccc1O

>  <unit.abbreviation>
%

>  <reading>
-2.75

$$$$

---

tested.target: Phosphatidylinositol 4,5-bisphosphate 3-kinase catalytic subunit alpha isoform (Homo sapiens) (UniProt P42336);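 further: values are mean inhibition figures from the GSK PKIS kinase panel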
Sequence (P42336 whole entry, canonical isoform): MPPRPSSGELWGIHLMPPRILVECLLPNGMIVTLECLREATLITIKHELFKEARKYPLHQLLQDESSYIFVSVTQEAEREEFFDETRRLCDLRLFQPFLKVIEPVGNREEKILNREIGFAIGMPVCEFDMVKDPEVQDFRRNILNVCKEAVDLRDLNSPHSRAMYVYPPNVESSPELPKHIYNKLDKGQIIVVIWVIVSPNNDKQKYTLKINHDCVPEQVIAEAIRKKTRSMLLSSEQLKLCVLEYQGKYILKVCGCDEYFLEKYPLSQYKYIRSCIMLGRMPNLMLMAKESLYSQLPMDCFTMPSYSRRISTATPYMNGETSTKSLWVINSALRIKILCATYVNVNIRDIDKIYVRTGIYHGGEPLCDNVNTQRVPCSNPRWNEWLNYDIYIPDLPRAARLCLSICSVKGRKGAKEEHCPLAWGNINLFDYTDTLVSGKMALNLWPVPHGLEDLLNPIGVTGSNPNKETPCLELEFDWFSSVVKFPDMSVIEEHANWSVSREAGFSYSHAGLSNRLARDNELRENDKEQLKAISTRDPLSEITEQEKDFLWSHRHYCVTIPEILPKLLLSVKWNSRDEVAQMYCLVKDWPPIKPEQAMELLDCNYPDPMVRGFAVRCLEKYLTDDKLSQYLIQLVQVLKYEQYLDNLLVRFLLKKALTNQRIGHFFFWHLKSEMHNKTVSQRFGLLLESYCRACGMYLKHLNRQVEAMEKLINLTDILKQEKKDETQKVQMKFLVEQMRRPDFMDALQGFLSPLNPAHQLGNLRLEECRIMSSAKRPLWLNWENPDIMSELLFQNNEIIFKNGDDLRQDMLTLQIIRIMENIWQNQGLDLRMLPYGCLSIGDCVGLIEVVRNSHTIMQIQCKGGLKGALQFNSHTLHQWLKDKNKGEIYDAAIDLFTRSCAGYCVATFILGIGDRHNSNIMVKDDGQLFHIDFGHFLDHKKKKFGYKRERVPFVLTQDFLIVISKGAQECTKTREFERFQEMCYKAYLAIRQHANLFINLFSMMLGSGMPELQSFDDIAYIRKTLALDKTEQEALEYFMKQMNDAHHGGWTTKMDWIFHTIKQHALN
protocol.conditions: at 0.1 µM
In this section we review reported inhibition values for a set of compounds.
measured.attribute: inhibition (%)

>  <compound.smiles>
Nc1nonc1-c1nc2cnccc2n1C1CCCCC1

>  <unit.abbreviation>
%

>  <reading>
-2.06

$$$$
>  <compound.smiles>
CCn1c(-c2nonc2N)nc2c(C#CCN)ncc(OCCCN)c21

>  <unit.abbreviation>
%

>  <reading>
-0.54

$$$$
>  <compound.smiles>
COc1cc(C=NNc2ncnc3c2cnn3Cc2ccccc2)ccc1O

>  <unit.abbreviation>
%

>  <reading>
-4.02

$$$$
>  <compound.smiles>
NC(=O)c1sc(-n2cnc3cc(C(F)(F)F)ccc32)cc1OCc1ccccc1Br

>  <unit.abbreviation>
%

>  <reading>
0.07

$$$$
>  <compound.smiles>
Cc1cc(-c2ccco2)cc(C)c1/C=C/c1cncc(-c2nn[nH]n2)c1

>  <unit.abbreviation>
%

>  <reading>
-0.22

$$$$
>  <compound.smiles>
Fc1ccc(-c2ncn(C3CCNCC3)c2-c2ccnc(Oc3ccccc3)n2)cc1

>  <unit.abbreviation>
%

>  <reading>
1.53

$$$$
>  <compound.smiles>
CCn1c(-c2nonc2N)nc2c(C#CC(C)(C)O)nc(O[C@@H](CN)c3ccccc3)cc21

>  <unit.abbreviation>
%

>  <reading>
-0.44

$$$$
>  <compound.smiles>
NS(=O)(=O)c1ccc(N/C=C2\C(=O)Nc3ccc4ncsc4c32)cc1

>  <unit.abbreviation>
%

>  <reading>
4.87

$$$$

---

tested.target: Protein kinase C beta type (Homo sapiens)
protocol.conditions: at 0.1 µM
Description: GSK_PKIS: PKC-beta2 (splice variant) mean inhibition at 0.1 uM [Nanosyn]
In this section we review reported inhibition values for a set of compounds.
measured.attribute: inhibition (%)

>  <compound.smiles>
COc1cc2c(cc1Nc1nc(Nc3ccsc3C(N)=O)c3cc[nH]c3n1)N(C(=O)CN(C)C)CCC2

>  <tested.target>
Protein kinase C beta type (Homo sapiens)

>  <reading>
-1.27

$$$$
>  <compound.smiles>
Cc1cc(-c2ccco2)cc(C)c1/C=C/c1cncc(-c2nn[nH]n2)c1

>  <tested.target>
Protein kinase C beta type (Homo sapiens)

>  <reading>
-0.04

$$$$
>  <compound.smiles>
COc1cccc(-n2ncc3c(N/N=C/c4ccncc4)ncnc32)c1

>  <tested.target>
Protein kinase C beta type (Homo sapiens)

>  <reading>
2.37

$$$$
>  <compound.smiles>
NS(=O)(=O)c1ccc(-c2ccc3c(NC(=O)C4CC4)n[nH]c3c2)cc1

>  <tested.target>
Protein kinase C beta type (Homo sapiens)

>  <reading>
0.67

$$$$
>  <compound.smiles>
CCn1c(-c2nonc2N)nc2c(C#CC(C)(C)O)ncc(OCC3CCNCC3)c21

>  <tested.target>
Protein kinase C beta type (Homo sapiens)

>  <reading>
8.97

$$$$
>  <compound.smiles>
CCn1c(-c2nonc2N)nc2c(C#CCN)ncc(OCCCN)c21

>  <tested.target>
Protein kinase C beta type (Homo sapiens)

>  <reading>
4.07

$$$$
>  <compound.smiles>
Fc1ccc(-c2ncn(C3CCNCC3)c2-c2ccnc(Oc3ccccc3)n2)cc1

>  <tested.target>
Protein kinase C beta type (Homo sapiens);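 further: measured against the PKC-beta2 splice variant, with values reported as mean percent inhibition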

>  <reading>
1.22

$$$$

---

tested.target: Casein kinase I isoform gamma-3 (Homo sapiens)
protocol.conditions: at 0.1 µM
measured.attribute: inhibition (%)

>  <compound.smiles>
COc1cccc(-n2ncc3c(N/N=C/c4ccncc4)ncnc32)c1

>  <tested.target>
Casein kinase I isoform gamma-3 (Homo sapiens)

>  <unit.abbreviation>
%

>  <reading>
5.28

$$$$
>  <compound.smiles>
NS(=O)(=O)c1ccc(-c2ccc3c(NC(=O)C4CC4)n[nH]c3c2)cc1

>  <tested.target>
Casein kinase I isoform gamma-3 (Homo sapiens)

>  <unit.abbreviation>
%

>  <reading>
0.52

$$$$
>  <compound.smiles>
NS(=O)(=O)c1ccc(N/C=C2\C(=O)Nc3ccc4ncsc4c32)cc1

>  <tested.target>
Casein kinase I isoform gamma-3 (Homo sapiens)

>  <unit.abbreviation>
%

>  <reading>
5.65

$$$$
>  <compound.smiles>
CCn1c(-c2nonc2N)nc2c(C#CCN)ncc(OCCCN)c21

>  <tested.target>
Casein kinase I isoform gamma-3 (Homo sapiens)

>  <unit.abbreviation>
%

>  <reading>
-1.84

$$$$
>  <compound.smiles>
Cc1cc(-c2ccco2)cc(C)c1/C=C/c1cncc(-c2nn[nH]n2)c1

>  <tested.target>
Casein kinase I isoform gamma-3 (Homo sapiens)

>  <unit.abbreviation>
%

>  <reading>
0.9

$$$$
>  <compound.smiles>
COc1cc(C=NNc2ncnc3c2cnn3Cc2ccccc2)ccc1O

>  <tested.target>
Casein kinase I isoform gamma-3 (Homo sapiens)

>  <unit.abbreviation>
%

>  <reading>
0.15

$$$$
>  <compound.smiles>
COc1cccc(COc2cc(-n3cnc4ccccc43)sc2C(N)=O)c1

>  <tested.target>
Casein kinase I isoform gamma-3 (Homo sapiens)

>  <unit.abbreviation>
%

>  <reading>
0.42

$$$$
>  <compound.smiles>
Nc1nonc1-c1nc2cnccc2n1C1CCCCC1

>  <tested.target>
Casein kinase I isoform gamma-3 (Homo sapiens)

>  <unit.abbreviation>
%

>  <reading>
-1.94

$$$$
>  <compound.smiles>
CCn1c(-c2nonc2N)nc2c(C#CC(C)(C)O)ncc(OC[C@@H]3CCCN3)c21

>  <tested.target>
Casein kinase I isoform gamma-3 (Homo sapiens);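 further: reported value is the mean percent inhibition of the kinase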

>  <unit.abbreviation>
%

>  <reading>
0.87

$$$$

---

tested.target: Sphingosine kinase 2 (Homo sapiens)
protocol.conditions: at 0.1 µM
measured.attribute: inhibition (%)

>  <compound.smiles>
CCn1c(-c2nonc2N)nc2c(C#CC(C)(C)O)ncc(OC[C@@H]3CCCN3)c21

>  <unit.abbreviation>
%

>  <reading>
1.65

$$$$
>  <compound.smiles>
NC(=O)c1sc(-n2cnc3cc(C(F)(F)F)ccc32)cc1OCc1ccccc1Br

>  <unit.abbreviation>
%

>  <reading>
-0.95

$$$$
>  <compound.smiles>
NS(=O)(=O)c1ccc(-c2ccc3c(NC(=O)C4CC4)n[nH]c3c2)cc1

>  <unit.abbreviation>
%

>  <reading>
0.08

$$$$
>  <compound.smiles>
Nc1nonc1-c1nc2cnccc2n1C1CCCCC1

>  <unit.abbreviation>
%

>  <reading>
1.2

$$$$
>  <compound.smiles>
Fc1ccc(-c2ncn(C3CCNCC3)c2-c2ccnc(Oc3ccccc3)n2)cc1

>  <unit.abbreviation>
%

>  <reading>
1.51

$$$$
>  <compound.smiles>
Cc1cc(-c2ccco2)cc(C)c1/C=C/c1cncc(-c2nn[nH]n2)c1

>  <unit.abbreviation>
%

>  <reading>
-0.36

$$$$
>  <compound.smiles>
CCn1c(-c2nonc2N)nc2c(C#CC(C)(C)O)nc(O[C@@H](CN)c3ccccc3)cc21

>  <unit.abbreviation>
%

>  <reading>
-0.06

$$$$

---

In this section we review reported inhibition values for a set of compounds.
tested.target: Aurora kinase A (Homo sapiens) (UniProt O14965);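 further: values are mean percent inhibition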
Sequence (O14965 whole entry): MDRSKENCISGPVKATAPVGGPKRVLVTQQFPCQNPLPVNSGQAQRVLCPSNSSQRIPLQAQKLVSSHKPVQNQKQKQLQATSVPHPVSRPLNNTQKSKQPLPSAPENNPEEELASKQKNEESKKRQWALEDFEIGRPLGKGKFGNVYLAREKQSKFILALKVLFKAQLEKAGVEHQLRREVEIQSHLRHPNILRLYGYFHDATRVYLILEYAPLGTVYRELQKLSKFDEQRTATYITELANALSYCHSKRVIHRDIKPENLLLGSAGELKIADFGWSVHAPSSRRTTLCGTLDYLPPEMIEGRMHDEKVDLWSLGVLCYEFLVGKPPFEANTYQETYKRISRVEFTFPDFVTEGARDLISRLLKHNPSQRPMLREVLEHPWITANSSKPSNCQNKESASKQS
protocol.conditions: at 1 µM

>  <compound.smiles>
CCn1c(-c2nonc2N)nc2c(C#CC(C)(C)O)nc(O[C@@H](CN)c3ccccc3)cc21

>  <unit.abbreviation>
%

>  <inhibition>
5.65

$$$$
>  <compound.smiles>
NC(=O)c1sc(-n2cnc3cc(C(F)(F)F)ccc32)cc1OCc1ccccc1Br

>  <unit.abbreviation>
%

>  <inhibition>
2.05

$$$$
>  <compound.smiles>
Cc1cc(-c2ccco2)cc(C)c1/C=C/c1cncc(-c2nn[nH]n2)c1

>  <unit.abbreviation>
%

>  <inhibition>
20

$$$$
>  <compound.smiles>
CCn1c(-c2nonc2N)nc2c(C#CC(C)(C)O)ncc(OCC3CCNCC3)c21

>  <unit.abbreviation>
%

>  <inhibition>
3.09

$$$$
>  <compound.smiles>
CCn1c(-c2nonc2N)nc2c(C#CC(C)(C)O)ncc(OC[C@@H]3CCCN3)c21

>  <unit.abbreviation>
%

>  <inhibition>
1.08

$$$$
>  <compound.smiles>
COc1cccc(COc2cc(-n3cnc4ccccc43)sc2C(N)=O)c1

>  <unit.abbreviation>
%

>  <inhibition>
2.21

$$$$
>  <compound.smiles>
CCn1c(-c2nonc2N)nc2c(C#CCN)ncc(OCCCN)c21

>  <unit.abbreviation>
%

>  <inhibition>
5.16

$$$$
